- Test system: EstFA (acidic esterase)
- assayProtocol: Effect of cations and inhibitors on recombinant EstFA activity
- Type: biochemical, Ferroplasma acidiphilum
- testParameters: additive 125 mM
experimentalEndpoint: Activity (%) EstFA
One number for each entry, in %.

Sample records with Activity (%) EstFA:
smiles: [Sr+2]
testedSystem: EstFA (acidic esterase)
unitInfo: %
Activity (%) EstFA: 106.5
//
smiles: [Na+]
testedSystem: EstFA (acidic esterase)
unitInfo: %
Activity (%) EstFA: 91.2
//
smiles: [Ca+2]
testedSystem: EstFA (acidic esterase)
unitInfo: %
Activity (%) EstFA: 100.8
//
smiles: N
testedSystem: EstFA (acidic esterase)
unitInfo: %
Activity (%) EstFA: 97.1

I need Activity (%) EstFA for every entry listed below, if you could help.
1. [Mg+2]
2. [Co+2]
3. [Zn+2]
4. O=C(O)CN(CCN(CC(=O)O)CC(=O)O)CC(=O)O
5. [K+]
6. [Li+]

116.8
68.3
4.6
9.5
115.7
48.0

---

- Test system: αGluFA (acidic glucosidase)
- assayProtocol: Effect of cations and inhibitors on recombinant αGluFA activity
- Type: biochemical, Ferroplasma acidiphilum
- testParameters: additive 10 mM
experimentalEndpoint: Activity (%) αGluFα
Give the number first and the unit second.

Sample records with Activity (%) αGluFα:
smiles: O=C(O)CN(CCN(CC(=O)O)CC(=O)O)CC(=O)O
experimentalEndpoint: Activity (%) αGluFα
endpointResult: 10.6%
//
smiles: [Mg+2]
experimentalEndpoint: Activity (%) αGluFα
endpointResult: 92.2%
//
smiles: [Sr+2]
experimentalEndpoint: Activity (%) αGluFα
endpointResult: 98.0%
//
smiles: [Zn+2]
experimentalEndpoint: Activity (%) αGluFα
endpointResult: 1.1%
//
smiles: CCCCCCCCCCCCOS(=O)(=O)[O-].[Na+]
experimentalEndpoint: Activity (%) αGluFα
endpointResult: 2.4%

I need Activity (%) αGluFα for every entry listed below, if you could help.
1. [Na+]
2. [Ca+2]
3. N
4. [Li+]

1. 86.3%
2. 91.2%
3. 103.8%
4. 107.2%

I need Activity (%) αGluFα for every entry listed below, if you could help.
1. [K+]
2. [Co+2]

["86.0%", "72.0%"]

FYI, the data here is from patent US8003357B2.
